Quick reference for inhibition at 10 µg/mL among some compounds
system: Hepatitis B virus; assay: Antiviral activity against HBV M204I mutant transfected in B1 cell line at 10 ug/mL; assay type: functional

Please review the entries below; each comes with its answer.
>>> obs_value("Nc1ccn([C@@H]2CS[C@H](CO)O2)c(=O)n1")
"45%"
>>> obs_value("O=c1[nH]c(=O)n(COC(CO)CO)cc1Cl")
"56%"
>>> obs_value("Cc1c(Br)c(=O)[nH]c(=O)n1COC(CO)CO")
"51%"

Looking for the measured inhibition at 10 µg/mL of Nc1nc(NC2CC2)c2ncn([C@H]3C=C[C@@H](CO)C3)c2n1 , can you help?
80%

###

test system: Duck hepatitis B virus; experiment: Antiviral activity against duck HBV in primary duck hepatocytes; format: functional, organism-based; settings: Hepatocyte
pEC50: −log10 of the molar value.
MEASURED_PARAMETER: pEC50

>>> obs_value("COc1nc(=O)n(COC(CO)CO)cc1Br")
"< 4.49"
>>> obs_value("Nc1nc(=O)n(COC(CO)CO)cc1F")
"< 4.37"
>>> obs_value("CCc1cn(COC(CO)CO)c(=O)[nH]c1=O")
"< 4.39"

Next up:
Query for Duck hepatitis B virus: what pEC50 does the record show for Cc1nn(COC(CO)CO)c(=O)[nH]c1=O ?
< 4.36
